# test.target: CDK4/cyclin D1 (Homo sapiens)
# Sequence (P24385 whole entry partner, species assumed, one chain of several): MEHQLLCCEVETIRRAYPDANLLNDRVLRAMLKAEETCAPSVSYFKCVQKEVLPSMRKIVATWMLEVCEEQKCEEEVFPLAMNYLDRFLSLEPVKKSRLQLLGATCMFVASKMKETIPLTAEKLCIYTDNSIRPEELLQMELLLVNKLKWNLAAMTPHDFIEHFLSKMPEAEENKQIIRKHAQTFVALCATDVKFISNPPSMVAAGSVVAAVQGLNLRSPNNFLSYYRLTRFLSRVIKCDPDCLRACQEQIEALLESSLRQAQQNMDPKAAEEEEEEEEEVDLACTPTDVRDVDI
# measurement.protocol: Radiometric 33P-ATP filter-binding kinase assay, CDK4/cyclin D1
# assay.setup: RB Protein 3 μM substrate, 33P-ATP 1 μM, 10-dose IC50 mode, 3-fold dilution starting at 0.1 μM
pIC50: −log10 of the molar value. Structures can show the parent of a compound that is named as a salt.
parameter.measured: pIC50

(A) CCN1CCN(Cc2ccc(Nc3ncc(F)c(-c4ccc5nn(C)c(C(C)C)c5c4)n3)nc2)CC1
(B) CC(C)c1c2cc(-c3nc(Nc4ccc(CN5CCNCC5)cn4)ncc3F)ccc2nn1C [1•HCl]
Qu. Problem: Given the entries A and B , determine which has the lower reported pIC50. State the label of the item chosen.
Ans. A

###

# test.target: CDK6/cyclin D3 (Homo sapiens, UniProt Q00534)
# Sequence (Q00534 whole entry, species assumed, one chain of several): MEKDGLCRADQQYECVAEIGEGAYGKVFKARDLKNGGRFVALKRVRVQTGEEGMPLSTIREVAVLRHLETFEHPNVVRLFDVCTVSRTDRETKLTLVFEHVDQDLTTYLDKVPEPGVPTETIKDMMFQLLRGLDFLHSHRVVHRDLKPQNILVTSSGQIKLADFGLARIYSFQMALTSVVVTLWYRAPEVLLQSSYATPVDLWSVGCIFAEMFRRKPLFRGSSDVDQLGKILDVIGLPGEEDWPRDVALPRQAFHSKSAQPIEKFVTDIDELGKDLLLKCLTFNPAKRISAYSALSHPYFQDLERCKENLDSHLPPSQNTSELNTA
# measurement.protocol: Radiometric 33P-ATP filter-binding kinase assay, CDK6/cyclin D3
# assay.setup: RB Protein 3 μM substrate, 33P-ATP 1 μM, 10-dose IC50 mode, 3-fold dilution starting at 0.1 μM
pIC50: −log10 of the molar value. Counter-ions that a name gives are not always drawn.
parameter.measured: pIC50

(A) CC(C)c1c2cc(-c3nc(Nc4ccc(CN5CCNCC5)cn4)ncc3F)ccc2nn1C [1•HCl]
(B) CCN1CCN(Cc2ccc(Nc3ncc(F)c(-c4ccc5nn(C)c(C(C)C)c5c4)n3)nc2)CC1
Qu. Problem: Given the entries A and B , determine which has the lower reported pIC50. State the label of the item chosen.
Ans. A

###

# test.target: CDK4/cyclin D3 (Homo sapiens)
# Sequence (P11802 whole entry, species assumed): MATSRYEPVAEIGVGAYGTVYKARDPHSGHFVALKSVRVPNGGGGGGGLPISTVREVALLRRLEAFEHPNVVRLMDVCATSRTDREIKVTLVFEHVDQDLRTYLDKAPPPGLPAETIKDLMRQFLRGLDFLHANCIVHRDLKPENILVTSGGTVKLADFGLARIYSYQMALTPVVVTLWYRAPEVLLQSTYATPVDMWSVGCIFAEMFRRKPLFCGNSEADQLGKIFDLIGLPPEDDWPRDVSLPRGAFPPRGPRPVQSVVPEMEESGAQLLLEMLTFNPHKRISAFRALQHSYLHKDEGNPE
# Sequence (P30281 whole entry partner, species assumed): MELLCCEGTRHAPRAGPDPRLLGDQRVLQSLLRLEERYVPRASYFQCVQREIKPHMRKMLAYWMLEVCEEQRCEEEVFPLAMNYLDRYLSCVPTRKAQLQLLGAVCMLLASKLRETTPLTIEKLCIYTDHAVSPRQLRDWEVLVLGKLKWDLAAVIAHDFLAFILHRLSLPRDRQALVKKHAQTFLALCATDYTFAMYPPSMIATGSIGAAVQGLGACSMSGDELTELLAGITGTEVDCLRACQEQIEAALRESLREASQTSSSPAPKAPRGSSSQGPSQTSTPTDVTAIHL
# measurement.protocol: Radiometric 33P-ATP filter-binding kinase assay, CDK4/cyclin D3
# assay.setup: RB Protein 3 μM substrate, 33P-ATP 1 μM, 10-dose IC50 mode, 3-fold dilution starting at 0.1 μM
pIC50: −log10 of the molar value. Structures can show the parent of a compound that is named as a salt.
parameter.measured: pIC50

(P) CC(C)c1c2cc(-c3nc(Nc4ccc(CN5CCNCC5)cn4)ncc3F)ccc2nn1C [1•HCl]
(Q) CCN1CCN(Cc2ccc(Nc3ncc(F)c(-c4ccc5nn(C)c(C(C)C)c5c4)n3)nc2)CC1
Qu. Would you let me know which has the greater pIC50 value, P or Q ? State the label of the item chosen.
Ans. Q
